Ref: paper PMC10836395

biological target: CATPO T188A variant (Scytalidium thermophilum (Humicola insolens), UniProt M4GGR5, T207A); format: biochemical; settings: pH 7.0 (ABTS pH 5.0), 60°C
Sequence (M4GGR5 entry or part of it T207A): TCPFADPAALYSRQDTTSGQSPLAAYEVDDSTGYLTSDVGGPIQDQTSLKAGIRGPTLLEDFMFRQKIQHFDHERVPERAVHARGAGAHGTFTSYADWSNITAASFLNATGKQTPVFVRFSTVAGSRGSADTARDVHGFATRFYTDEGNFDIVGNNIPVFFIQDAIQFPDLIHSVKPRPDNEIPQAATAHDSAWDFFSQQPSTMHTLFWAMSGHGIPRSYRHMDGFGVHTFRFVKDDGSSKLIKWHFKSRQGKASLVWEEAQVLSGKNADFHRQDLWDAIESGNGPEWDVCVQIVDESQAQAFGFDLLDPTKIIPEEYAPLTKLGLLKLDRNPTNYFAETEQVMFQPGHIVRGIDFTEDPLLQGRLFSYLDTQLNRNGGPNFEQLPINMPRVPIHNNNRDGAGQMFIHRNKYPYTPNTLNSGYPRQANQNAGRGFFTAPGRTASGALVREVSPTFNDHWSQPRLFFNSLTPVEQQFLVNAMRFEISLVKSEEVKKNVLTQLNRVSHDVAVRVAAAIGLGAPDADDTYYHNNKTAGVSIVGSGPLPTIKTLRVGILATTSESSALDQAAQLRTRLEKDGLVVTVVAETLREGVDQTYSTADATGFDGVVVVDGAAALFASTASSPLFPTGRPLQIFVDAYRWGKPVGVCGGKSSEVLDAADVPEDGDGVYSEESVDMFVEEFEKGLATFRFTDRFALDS
# if value of K m reaches 40 mM, tag 1; if it stays below, tag 0

>>> label("CC(C)(C)c1ccc(O)c(O)c1 [1,4-tert-Butylcatechol, 4-tert-butylcatechol]")
0
>>> label("CCn1c(=NN=c2sc3cc(S(=O)(=O)O)ccc3n2CC)sc2cc(S(=O)(=O)O)ccc21 [ABTS]")
1
>>> label("Oc1ccccc1O [Catechol, catechol]")
0
>>> label("Oc1ccc(O)cc1 [Hydroquinone, p-hydroquinone]")
1
>>> label("Cc1ccc(O)c(O)c1 [4-Methylcatechol, 4-methylcatechol]")
0
